Below, each entry is listed alongside its reported log10 IC50.
test system: MCF7; assay: Cytotoxicity against human MCF7 cells after 48 hrs by MTT assay; assay type: functional, cell-based; settings: MCF7, 48 h
observed-property: log10 IC50 (log10 of the value in nM)

compound	measured-number
C=C1C(=O)Oc2cc3c(cc2C1C(C)C)OCO3 (configuration not stated)	2.94
C=C1C(=O)Oc2ccc3ccc(O)cc3c2C1C(C)C (configuration not stated)	2.56
C=C1C(=O)Oc2ccc3ccc(O)cc3c2C1C (configuration not stated)	3.79
C=C1C(=O)Oc2cc(OC)ccc2C1C (configuration not stated)	4.86
C=C1C(=O)Oc2cc(OC)ccc2C1CCCC (configuration not stated)	3.85
C=C1C(=O)Oc2cc3c(cc2C1CCCC)OCO3 (configuration not stated)	2.73
C=C1C(=O)Oc2cc(OC)ccc2C1C(C)C (configuration not stated)	2.94
